B1: CD2-associated protein, residues 109 to 169; numbered along this chain, Q9Y5K6 (parent)
chain: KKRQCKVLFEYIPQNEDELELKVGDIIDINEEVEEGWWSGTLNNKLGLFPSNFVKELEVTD

Variants of: B1
testMethodNotes: abundance fitness (aPCA) (normalised: wild type 0, dead -1); higher = more abundant; growth selection in yeast, the domain comes from the species named
measurementConditions: Homo sapiens
Some variants, each annotated with its measured abundance fitness.

change	abundance fitness
E32M	0.178
D61P	0.04
T60H	0.045
G40C	-0.664
K55D	-0.313
I29Q	-0.823
E35N	-0.12
I29L	-0.219
L57K	-0.263
E58M	0
E56Y	-0.717
S51C	-0.311
F53Q	-0.2
L48K	0.197
L48H	-0.291
S51Q	-0.307
D28V	-0.314
K55A	-0.01
E31N	-0.016
V59K	-0.283
I26R	-0.813
L46N	0.074
